What pKd was measured for each of the following?
Target: T1, human TROP2 protein (Sino Biological, #10428-H08H) (human, UniProt P09758 27-274)
T1 construct: bought protein; also called human Trop2 protein antigen (His tag); not shown: His tag
T1 sequence (looked up): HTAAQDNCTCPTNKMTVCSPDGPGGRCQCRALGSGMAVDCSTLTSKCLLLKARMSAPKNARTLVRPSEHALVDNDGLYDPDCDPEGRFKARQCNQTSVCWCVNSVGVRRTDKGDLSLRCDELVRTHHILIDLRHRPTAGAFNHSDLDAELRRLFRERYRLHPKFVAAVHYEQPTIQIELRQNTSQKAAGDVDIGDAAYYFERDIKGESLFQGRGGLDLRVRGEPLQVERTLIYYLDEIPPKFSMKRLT
Assay: BLI, Octet RED96, AHC sensor
pKd: −log10 of the molar value.

binder: PR001130 (antibody, human IgG1, kappa, V domains shown, fully human IgG1/kappa; also called antibody No. (2)) VH: QVQLQESGPGLVKPSGTLSLTCAVSGDSISSHNWWSWVRQPPGKGLEWIGEIYHSGITSYNPSLKSRVTISVDKSKNQFSLKLNSVTAADTAMYYCARGSGVISYFDYWGQGTLVTVSS VL: DIQMTQSPSTLSASVGDRVTITCRASQSIGNWLAWYQQKPGKAPKLLIYKASSLESGVPSRFSGSGSGTEFTLTISSLQPDDFATYYCQQYDSYSPITFGQGTRLEIKR
pKd: > 12.00
//
binder: PR001162 (antibody, human IgG1, kappa, V domains shown, fully human IgG1/kappa; also called antibody No. (23)) VH: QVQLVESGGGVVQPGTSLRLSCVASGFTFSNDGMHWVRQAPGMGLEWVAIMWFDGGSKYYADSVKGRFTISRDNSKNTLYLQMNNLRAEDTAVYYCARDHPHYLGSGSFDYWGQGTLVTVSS VL: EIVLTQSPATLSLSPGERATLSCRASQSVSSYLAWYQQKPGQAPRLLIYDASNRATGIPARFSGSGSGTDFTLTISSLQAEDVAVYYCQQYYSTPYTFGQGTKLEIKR
pKd: 8.77

Continue with the next binder.
Which pKd value belongs to PR001132 (antibody, human IgG1, kappa, V domains shown, fully human IgG1/kappa; also called antibody No. (4)) VH: QVELVESGGGVVQPGRSLRLSCGASGFTFSSYNMYWVRQAPGKGLEWVAGIWDDGNNKYYANSVKGRFTISRDNSKNTLYLQMNSLRTEDTALYYCAKDGWGSYGEYFQHWGQGTLVTVSS VL: DIQMTQSPSSLSASVGERVTITCRASQNINSYLSWYQQKPGKAPKLLIYAASSLQNGVPSRFSGSGSGTDFTLTISSLQPEDFATYYCQQSFSTPPITFGQGTRLEIKR ?
> 12.00
